These measurements were taken from patent US20220348651A1.

Molecular target: T1, recombinant human ENTPD2 extracellular domain (residues 29-462) with C-terminal Avi-His6 tag (human, UniProt Q9Y5L3 29-462, biotinylated on the AviTag in the epitope binning assay)
T1 construct: also called human ENTPD2 ECD; Human ENTPD2-Avi-His6 protein
T1 sequence (Q9Y5L3 29-462): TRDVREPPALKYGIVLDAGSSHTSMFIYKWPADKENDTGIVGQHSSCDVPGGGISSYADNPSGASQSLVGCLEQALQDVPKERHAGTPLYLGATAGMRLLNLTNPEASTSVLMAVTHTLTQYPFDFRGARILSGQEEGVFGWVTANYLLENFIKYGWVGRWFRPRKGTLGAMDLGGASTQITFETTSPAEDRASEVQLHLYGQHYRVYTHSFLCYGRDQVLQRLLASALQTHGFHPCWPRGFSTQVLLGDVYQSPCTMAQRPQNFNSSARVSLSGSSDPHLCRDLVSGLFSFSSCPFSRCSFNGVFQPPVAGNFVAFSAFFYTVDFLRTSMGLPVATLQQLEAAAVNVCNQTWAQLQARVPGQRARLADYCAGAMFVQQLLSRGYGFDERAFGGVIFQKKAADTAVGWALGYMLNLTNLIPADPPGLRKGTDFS
Assay: SPR Biacore, mAb captured, ECD analyte, 25C

{"Binder": "ANTI-HUMAN ENTPD2 MAB9 (antibody, human IgG1, lambda, V domains shown, also called Anti-ENTPD2 mAb9) VH: QVQLVQSGAEVKKPGSSVKVSCKASGGTFDSYAVSWVRQAPGQGLEWMGRIVPWLGHTQYAQKFQGRVTITADESTSTAYMELSSLRSEDTAVYYCARESPGYRYSFDVWDQGTLVTVSS VL: SYELTQPLSVSVALGQTARITCSGDAIGEKYVYWYQQKPGQAPVLVIYDDNNRPSGIPERFSGSNSGNTATLTISRAQAGDEADYYCASYDLQQARWVFGGGTKLTVLG", "kon [M⁻¹ s⁻¹]": 380000}
